Kindly supply the reported folding stability dG unfold values for the records listed here.
# ASSAY_INFO: folding stability dG unfold (combined trypsin and chymotrypsin); higher = more stable
Numbers only, in kcal/mol.

Provide reported folding stability dG unfold for each item, in the same order as listed.
1. SAGGYKYKREKYRDPENGQPRERYKREPPPPPPPSISININAPPEMADKIADILQDLLPNMPVGINGSAGGS [r8_437_TrROS]
2. MKIKEVKVFPLPGENTIVILVTGEFDSFYIPETGKPIPSSAKITLIEVIKVPEDSDEAEVESSLLILPDAES [r1_147_TrMRF]
3. SAGGSAGGSAGGKVITVELPDDVTVTFFIPEDPDIVPVEVTPPDGSTLTLPAKDIRELLGSAGGSAGGSAGG [r7_769_TrMRF]
4. SDETVELPTVYTLYFGKDGTPRYYITVTLGDGPVAMELPEVSPDVKDGDVVPVKVPSSVVTSYSVSSAPASA [r9_769_JUSTAS]

1. 2.84
2. 1.4
3. 0.364
4. 0.808

---

# ASSAY_INFO: folding stability dG unfold from chymotrypsin proteolysis; higher = more stable
EXPERIMENTAL_ENDPOINT: folding stability dG unfold (kcal/mol)
Numbers only, in kcal/mol.

Answered cases to consult:
SAGGSAGKNKPFPLPILIEAHPDDPEEAAERLKAELEALFPGPIKVEIVEVDPEKGIITAIVTVDGSAGGSA [r15_1024_TrMRF]	1.58
SMTPEEVKALAEELAERLKEEGYEVEVKVTVEEVDGEKYVTIEIEVRRPDGSTETFRLVIREDGSIEIYPSA [r9_1027_TrROS_Hall]	4.54
SAGGSAGGSAGPEVIEIKNPKTGKTYRIVRNKDGKLLIYNEATGKVAVFKDGKIELVPAPSAGGSAGGSAGG [r17_476_TrROS_Hall]	0.825
SAGGSAGGSAGGSRYLRIETDRIDDVVEAALKTPGVEEVRVDTPADDRFYVLVKVPDEVSAGGSAGGSAGGS [r4_1_TrMRF]	-1.13
SAGGSAGGSKPVLVKVERKEVEVPLPDGTPGKVFVVKVTVLGENEPLAEKTYLFASEEEAKESSAGGSAGGS [r12_461_TrMRF]	0.761

// for each sequence below, give its folding stability dG unfold
1. SAGGSAGGSMYIVNIKFYNPKTGKVLYIPIKTKKEKAEEIAKELAKKLPEIKYIKAEIKPDISSAGGSAGGS [r12_757_TrMRF]
2. SAGGSMPPVVEPATLTLGNGPATQLQRYPGVELVVYRRPPENTILFLSSSGQVLEERKVSPETPVSELSAGG [r13_507_JUSTAS]

1. 1.74
2. -0.318

---

What folding stability dG unfold was measured for each of the following?
# ASSAY_INFO: folding stability dG unfold (combined trypsin and chymotrypsin); higher = more stable
Numbers only, in kcal/mol.

The cases that follow already have their folding stability dG unfold on record.
SAGGKLPLPPGTEVEFLFRSPLDPRRLYLVRVRFEPVPPDRLRLRPRVFNPETGEEVEFEFEVPLDEGSAGG [r13_268_TrMRF]	3
SAKVITIKLKIKVKTEEELEKAKELADELAKKLAEEGKKVKVEVVKIEVEENENGEKTVTIEIKIYLEPSAG [r14_48_TrROS_Hall]	3.6
SAGTLTLELEVEVDGVLVRVRVEVRPGEEVEVRVEVEVRELPPEPEVEEEEKVELSEEDLERLRRLAEESAG [r5_958_TrROS_Hall]	3.05
SAGGSAGGDEIADKVKDLLRKHGWPVKEVEVTVMPHPPGRVYVMIEITMEHPGKKWTMEIMVEVSAGGSAGG [r6_533_TrROS]	4.66
SAGGEFEVEELPPGGLLLVTFRAPADLPLEIPLEFTSPDGSPVEVAEYEREPFGDYVLITVLVRVPDSAGGS [r16_499_TrMRF]	2.73

Any idea what its folding stability dG unfold is? The sequence is SAGGLEIDTSDGNVKVTKVSTKTTVEKDPTNPDRYRIITSKEIKTEPVKPPDVKEGPPIGLNNPELLSAGGS [r16_395_JUSTAS] 0.165

Ref: the supplement of paper PMC12764529
